Recorded residual activity, one value per entry.
molecular target: NEK3 (human) (UniProt P51956); experiment: radiometric filter-binding kinase assay, Kinase HotSpot; settings: compound 0.5 µM; ATP 10 µM
Sequence (P51956 whole entry, looked up): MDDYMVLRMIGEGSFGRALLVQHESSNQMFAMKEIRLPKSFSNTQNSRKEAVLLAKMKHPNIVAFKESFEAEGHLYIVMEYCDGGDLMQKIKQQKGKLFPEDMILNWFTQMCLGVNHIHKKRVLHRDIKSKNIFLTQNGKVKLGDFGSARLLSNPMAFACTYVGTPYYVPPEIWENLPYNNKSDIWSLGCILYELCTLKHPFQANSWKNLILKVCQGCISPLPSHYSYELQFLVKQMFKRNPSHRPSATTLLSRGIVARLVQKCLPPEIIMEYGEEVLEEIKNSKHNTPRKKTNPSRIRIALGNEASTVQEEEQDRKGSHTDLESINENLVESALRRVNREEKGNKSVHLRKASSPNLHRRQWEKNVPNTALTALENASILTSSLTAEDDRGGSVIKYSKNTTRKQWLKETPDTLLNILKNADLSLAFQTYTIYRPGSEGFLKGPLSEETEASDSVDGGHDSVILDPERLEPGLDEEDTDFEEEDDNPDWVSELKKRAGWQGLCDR

# chem smiles, tgt, residual activity
data = [
    ("O=C1Nc2ccccc2/C1=C1\\Nc2ccccc2\\C1=N/O", "NEK3 (human) (UniProt P51956)", "102%"),
    ("COc1ccc(CNC(=O)Nc2ncc([N+](=O)[O-])s2)cc1", "NEK3 (human) (UniProt P51956)", "78.6%"),
    ("Oc1ccc(Nc2nc(-c3ccc(Cl)cc3)cs2)cc1", "NEK3 (human) (UniProt P51956)", "98.4%"),
    ("COc1cc2ncnc(N3CCN(C(=O)Nc4ccc(Oc5ccccc5)cc4)CC3)c2cc1OC", "NEK3 (human) (UniProt P51956)", "100%"),
    ("CCn1cnc2c(Nc3cccc(Cl)c3)nc(N[C@@H]3CCCC[C@@H]3N)nc21", "NEK3 (human) (UniProt P51956)", "100%"),
    ("Nc1nnc2[nH]c3ccccc3nc1-2", "NEK3 (human) (UniProt P51956)", "94.9%"),
    ("CC(=O)O/N=C1\\C(=C2\\C(=O)Nc3cc(Br)ccc32)Nc2ccccc21", "NEK3 (human) (UniProt P51956)", "130%"),
    ("O=C1Cc2c([nH]c3ccc(Br)cc23)-c2ccccc2N1", "NEK3 (human) (UniProt P51956)", "96.2%"),
    ("Cn1sc(=O)n(Cc2ccccc2)c1=O", "NEK3 (human) (UniProt P51956)", "89.3%"),
    ("CN([C@@H](Cc1ccc(OS(=O)(=O)c2cccc3cnccc23)cc1)C(=O)N1CCN(c2ccccc2)CC1)S(=O)(=O)c1cccc2cnccc12", "NEK3 (human) (UniProt P51956)", "99.8%"),
    ("COc1cc2ncc(-c3ccccc3)nc2cc1OC", "NEK3 (human) (UniProt P51956)", "90.5%"),
]

----------
target: PRKCD (human) (UniProt Q05655); assay: radiometric filter-binding kinase assay, Kinase HotSpot; settings: compound 0.5 µM; ATP 10 µM
Sequence (Q05655 whole entry, looked up): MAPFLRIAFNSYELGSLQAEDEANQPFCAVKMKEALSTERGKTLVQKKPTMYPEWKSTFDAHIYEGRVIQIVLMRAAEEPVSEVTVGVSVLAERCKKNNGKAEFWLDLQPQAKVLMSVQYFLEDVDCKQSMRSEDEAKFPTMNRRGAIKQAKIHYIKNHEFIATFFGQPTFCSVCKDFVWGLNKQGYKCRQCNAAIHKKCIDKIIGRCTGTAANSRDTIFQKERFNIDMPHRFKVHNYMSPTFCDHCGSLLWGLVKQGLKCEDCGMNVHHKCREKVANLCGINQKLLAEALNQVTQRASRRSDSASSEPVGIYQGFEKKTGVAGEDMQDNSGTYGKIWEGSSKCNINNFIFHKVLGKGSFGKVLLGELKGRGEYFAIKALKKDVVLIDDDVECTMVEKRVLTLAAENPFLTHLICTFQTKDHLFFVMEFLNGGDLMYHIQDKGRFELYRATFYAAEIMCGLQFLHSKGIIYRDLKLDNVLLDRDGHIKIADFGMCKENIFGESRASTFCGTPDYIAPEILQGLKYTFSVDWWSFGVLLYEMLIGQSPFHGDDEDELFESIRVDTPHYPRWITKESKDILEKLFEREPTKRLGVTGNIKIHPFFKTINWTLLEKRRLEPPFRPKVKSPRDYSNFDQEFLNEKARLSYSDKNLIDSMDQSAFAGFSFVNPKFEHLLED
Recorded residual activity, one value per entry.

# chem smiles, residual activity / %
rows = [
    ("CN(C)C[C@H]1CCn2c(c(C3=C(c4cn(C)c5ccccc45)C(=O)NC3=O)c3ccccc32)C1", 8.11),
    ("COc1cc2ncc(-c3ccccc3)nc2cc1OC", 82.2),
    ("CC(=O)O/N=C1\\C(=C2\\C(=O)Nc3cc(Br)ccc32)Nc2ccccc21", 97),
    ("O=C(O)/C=C/c1cc(Br)c(Br)c(Br)c1Br", 93.9),
]

----------
target: AURKB (human) (UniProt Q96GD4); test: radiometric filter-binding kinase assay, Kinase HotSpot; settings: compound 0.5 µM; ATP 10 µM
Sequence (Q96GD4 whole entry, looked up): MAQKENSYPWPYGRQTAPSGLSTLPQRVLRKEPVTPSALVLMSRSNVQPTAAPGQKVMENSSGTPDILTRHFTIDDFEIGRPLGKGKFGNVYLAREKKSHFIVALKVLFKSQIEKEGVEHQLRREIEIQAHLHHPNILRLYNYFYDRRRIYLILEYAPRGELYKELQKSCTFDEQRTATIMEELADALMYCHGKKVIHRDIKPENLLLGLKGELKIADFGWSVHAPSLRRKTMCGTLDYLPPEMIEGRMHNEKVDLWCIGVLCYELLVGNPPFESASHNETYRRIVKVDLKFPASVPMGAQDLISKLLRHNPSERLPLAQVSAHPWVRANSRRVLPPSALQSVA

# compound, residual activity / %
records = [
    ("Cn1nc2c3c(cccc31)C(=O)c1ccccc1-2", 83.5),
    ("Cc1nc2cc3nc(-c4cccs4)cnc3cc2n1C", 84.9),
    ("O=C1NC(=O)C(c2cn(CCCO)c3ncccc23)=C1c1cnccn1", 101),
    ("COc1ccc(OC)c2c(=S)c3ccccc3[nH]c12", 89.6),
    ("O=C1NC(=O)/C(=C\\c2ccc3nccnc3c2)S1", 101),
    ("CC(=O)O/N=C1\\C(=C2\\C(=O)Nc3cc(Br)ccc32)Nc2ccccc21", 81),
    ("O=C1Nc2ccccc2/C1=C1/Nc2ccccc2/C1=N\\OCCC(O)CO (stereo unspecified)", 27.4),
    ("CN([C@@H](Cc1ccc(OS(=O)(=O)c2cccc3cnccc23)cc1)C(=O)N1CCN(c2ccccc2)CC1)S(=O)(=O)c1cccc2cnccc12", 104),
    ("CCn1cnc2c(Nc3cccc(Cl)c3)nc(N[C@@H]3CCCC[C@@H]3N)nc21", 98.8),
    ("Nc1nnc2[nH]c3ccccc3nc1-2", 101),
    ("O=C1NC(=O)C(c2c[nH]c3ccccc23)=C1c1c[nH]c2ccccc12", 89.3),
]

----------
target: STK3 (human) (UniProt Q13188); assay: radiometric filter-binding kinase assay, Kinase HotSpot; details: compound 0.5 µM; ATP 10 µM
Sequence (Q13188 whole entry, looked up): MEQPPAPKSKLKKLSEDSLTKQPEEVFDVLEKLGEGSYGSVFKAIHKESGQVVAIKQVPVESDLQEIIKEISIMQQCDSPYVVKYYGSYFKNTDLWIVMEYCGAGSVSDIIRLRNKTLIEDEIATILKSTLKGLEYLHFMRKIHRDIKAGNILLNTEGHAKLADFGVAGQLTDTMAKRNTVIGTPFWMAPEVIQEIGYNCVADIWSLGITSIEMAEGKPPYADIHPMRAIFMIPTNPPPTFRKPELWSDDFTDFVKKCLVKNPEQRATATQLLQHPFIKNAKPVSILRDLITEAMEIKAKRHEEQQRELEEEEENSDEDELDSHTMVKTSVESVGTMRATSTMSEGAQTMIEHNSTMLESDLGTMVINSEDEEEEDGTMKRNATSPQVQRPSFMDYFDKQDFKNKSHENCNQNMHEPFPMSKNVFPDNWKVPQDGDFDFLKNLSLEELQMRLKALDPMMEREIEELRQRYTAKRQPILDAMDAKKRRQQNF
Recorded residual activity, one value per entry.
property name: residual activity (%)

# chem smiles, property name, measurement unit, reported
data = [
    ("CC(C)c1nn(-c2c(Cl)cccc2Cl)c2nc(Cc3ccc(OCCO)cc3)nc(O)c12", "residual activity", "%", 93.5),
    ("CN(C)C[C@H]1CCn2c(c(C3=C(c4cn(C)c5ccccc45)C(=O)NC3=O)c3ccccc32)C1", "residual activity", "%", 102),
    ("COc1cc2ncc(-c3ccccc3)nc2cc1OC", "residual activity", "%", 95.7),
    ("O=C1Nc2ccccc2/C1=C1\\Nc2ccccc2\\C1=N/O", "residual activity", "%", 19.9),
]

----------
Recorded residual activity, one value per entry.
target: UniProtKB Q12851; test: radiometric filter-binding kinase assay, Kinase HotSpot; details: compound 0.5 µM; ATP 10 µM
Sequence (Q12851 whole entry, looked up): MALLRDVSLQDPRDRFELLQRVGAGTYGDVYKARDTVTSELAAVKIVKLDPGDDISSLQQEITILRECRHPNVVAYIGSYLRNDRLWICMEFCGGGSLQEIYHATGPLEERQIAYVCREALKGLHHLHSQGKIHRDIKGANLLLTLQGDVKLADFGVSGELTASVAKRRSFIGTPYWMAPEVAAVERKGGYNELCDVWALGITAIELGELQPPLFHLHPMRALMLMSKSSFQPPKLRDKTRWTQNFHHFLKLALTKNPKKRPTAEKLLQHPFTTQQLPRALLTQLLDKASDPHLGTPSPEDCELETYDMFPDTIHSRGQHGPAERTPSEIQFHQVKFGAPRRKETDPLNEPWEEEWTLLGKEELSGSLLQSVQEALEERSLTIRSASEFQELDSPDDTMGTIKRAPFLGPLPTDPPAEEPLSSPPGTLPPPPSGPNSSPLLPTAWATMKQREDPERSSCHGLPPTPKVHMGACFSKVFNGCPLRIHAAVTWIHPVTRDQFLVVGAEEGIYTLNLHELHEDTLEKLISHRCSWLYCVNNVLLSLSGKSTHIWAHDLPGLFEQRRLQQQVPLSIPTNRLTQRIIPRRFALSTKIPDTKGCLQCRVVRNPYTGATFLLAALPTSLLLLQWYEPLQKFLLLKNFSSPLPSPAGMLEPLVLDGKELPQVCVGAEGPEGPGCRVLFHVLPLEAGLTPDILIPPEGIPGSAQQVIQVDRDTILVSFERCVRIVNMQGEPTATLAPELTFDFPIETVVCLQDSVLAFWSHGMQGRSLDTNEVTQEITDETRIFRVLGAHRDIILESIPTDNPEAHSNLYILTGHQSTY
property name: residual activity (%)

# chem smiles, property name, reported
records = [
    ("Cn1cnc2cc3c(Nc4cccc(Br)c4)ncnc3cc21", "residual activity", 90.4),
    ("O=C1Nc2ccccc2/C1=C1\\Nc2ccccc2\\C1=N/O", "residual activity", 57.3),
    ("O=C1NC(=O)/C(=C\\c2ccc3nccnc3c2)S1", "residual activity", 86.1),
    ("O=C(O)/C=C/c1cc(Br)c(Br)c(Br)c1Br", "residual activity", 89.3),
    ("COc1ccc(CNC(=O)Nc2ncc([N+](=O)[O-])s2)cc1", "residual activity", 113),
    ("Nc1nnc2[nH]c3ccccc3nc1-2", "residual activity", 91.7),
    ("COc1cc2ncc(-c3ccccc3)nc2cc1OC", "residual activity", 99.2),
    ("Cn1nc2c3c(cccc31)C(=O)c1ccccc1-2", "residual activity", 75.4),
    ("CCn1cnc2c(Nc3cccc(Cl)c3)nc(N[C@@H]3CCCC[C@@H]3N)nc21", "residual activity", 87.4),
    ("CN([C@@H](Cc1ccc(OS(=O)(=O)c2cccc3cnccc23)cc1)C(=O)N1CCN(c2ccccc2)CC1)S(=O)(=O)c1cccc2cnccc12", "residual activity", 89.5),
    ("COc1ccc(OC)c2c(=S)c3ccccc3[nH]c12", "residual activity", 96.5),
]

----------
biological target: PIM2 (human) (UniProt Q9P1W9); experiment: radiometric filter-binding kinase assay, Kinase HotSpot; details: compound 0.5 µM; ATP 10 µM
Sequence (Q9P1W9 whole entry, looked up): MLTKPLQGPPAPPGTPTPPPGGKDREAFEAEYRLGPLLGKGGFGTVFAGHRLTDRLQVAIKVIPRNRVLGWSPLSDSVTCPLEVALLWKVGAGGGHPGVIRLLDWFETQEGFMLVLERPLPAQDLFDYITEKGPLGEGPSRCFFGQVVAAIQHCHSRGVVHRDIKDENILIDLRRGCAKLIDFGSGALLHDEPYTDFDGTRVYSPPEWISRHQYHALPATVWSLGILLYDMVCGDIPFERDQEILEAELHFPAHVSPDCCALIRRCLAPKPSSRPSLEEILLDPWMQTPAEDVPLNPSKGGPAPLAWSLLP
property name: residual activity (%)

# chem smiles, measurement unit, reported
records = [
    ("CC(C)c1nn(-c2c(Cl)cccc2Cl)c2nc(Cc3ccc(OCCO)cc3)nc(O)c12", "%", 104),
    ("CN(C)C[C@H]1CCn2c(c(C3=C(c4cn(C)c5ccccc45)C(=O)NC3=O)c3ccccc32)C1", "%", 102),
    ("Cc1nc2cc3nc(-c4cccs4)cnc3cc2n1C", "%", 114),
    ("Cn1cnc2cc3c(Nc4cccc(Br)c4)ncnc3cc21", "%", 113),
    ("Cn1nc2c3c(cccc31)C(=O)c1ccccc1-2", "%", 105),
    ("Oc1ccc(Nc2nc(-c3ccc(Cl)cc3)cs2)cc1", "%", 106),
    ("CCn1cnc2c(Nc3cccc(Cl)c3)nc(N[C@@H]3CCCC[C@@H]3N)nc21", "%", 111),
    ("Nc1nnc2[nH]c3ccccc3nc1-2", "%", 105),
    ("O=C1Cc2c([nH]c3ccc(Br)cc23)-c2ccccc2N1", "%", 104),
    ("O=C(CCCc1ccc(-c2ccccc2F)cc1)Nc1ccc(O)cc1", "%", 115),
    ("O=C1NC(=O)C(c2c[nH]c3ccccc23)=C1c1c[nH]c2ccccc12", "%", 105),
]

----------
biological target: UniProt Q86UE8; test: radiometric filter-binding kinase assay, Kinase HotSpot; conditions: compound 0.5 µM; ATP 10 µM
Sequence (Q86UE8 whole entry, looked up): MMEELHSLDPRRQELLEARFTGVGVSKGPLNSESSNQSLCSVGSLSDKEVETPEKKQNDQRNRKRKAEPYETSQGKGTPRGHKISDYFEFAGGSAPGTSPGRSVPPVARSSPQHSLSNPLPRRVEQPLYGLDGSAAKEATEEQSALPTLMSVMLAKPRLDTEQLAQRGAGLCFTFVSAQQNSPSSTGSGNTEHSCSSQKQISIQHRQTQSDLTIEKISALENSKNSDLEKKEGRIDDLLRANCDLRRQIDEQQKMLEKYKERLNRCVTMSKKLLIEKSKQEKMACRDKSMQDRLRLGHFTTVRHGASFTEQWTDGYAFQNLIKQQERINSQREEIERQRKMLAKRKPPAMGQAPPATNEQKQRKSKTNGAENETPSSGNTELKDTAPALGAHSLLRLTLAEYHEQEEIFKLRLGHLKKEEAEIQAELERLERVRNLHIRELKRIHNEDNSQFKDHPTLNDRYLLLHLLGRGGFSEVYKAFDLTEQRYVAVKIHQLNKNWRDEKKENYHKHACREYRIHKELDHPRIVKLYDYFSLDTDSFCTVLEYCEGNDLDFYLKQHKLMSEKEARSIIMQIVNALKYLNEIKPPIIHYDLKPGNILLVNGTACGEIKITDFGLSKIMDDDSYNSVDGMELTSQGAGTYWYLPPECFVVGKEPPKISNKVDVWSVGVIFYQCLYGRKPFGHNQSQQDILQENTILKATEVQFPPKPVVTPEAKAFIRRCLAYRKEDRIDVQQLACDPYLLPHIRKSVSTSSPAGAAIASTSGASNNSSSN
Recorded residual activity, one value per entry.

# chem smiles, residual activity (%)
data = [
    ("COc1cc2ncnc(N3CCN(C(=O)Nc4ccc(Oc5ccccc5)cc4)CC3)c2cc1OC", 94.7),
    ("O=C1NC(=O)/C(=C\\c2ccc3nccnc3c2)S1", 95.2),
    ("O=C1Cc2c([nH]c3ccc(Br)cc23)-c2ccccc2N1", 99.4),
    ("O=C(CCCc1ccc(-c2ccccc2F)cc1)Nc1ccc(O)cc1", 84.1),
    ("COc1cc2ncc(-c3ccccc3)nc2cc1OC", 96.3),
    ("Oc1ccc(Nc2nc(-c3ccc(Cl)cc3)cs2)cc1", 121),
    ("Cn1nc2c3c(cccc31)C(=O)c1ccccc1-2", 101),
    ("CN(C)C[C@H]1CCn2c(c(C3=C(c4cn(C)c5ccccc45)C(=O)NC3=O)c3ccccc32)C1", 88.4),
    ("CN([C@@H](Cc1ccc(OS(=O)(=O)c2cccc3cnccc23)cc1)C(=O)N1CCN(c2ccccc2)CC1)S(=O)(=O)c1cccc2cnccc12", 100),
    ("Nc1nccc(-c2c(-c3ccc(F)cc3)ncn2C2CCNCC2)n1", 95.1),
]

Ref: the kinase profiling compilation of Christmann-Franck et al. (2016)
